- Tested on: A549
- measurement.notes: Antiproliferative activity against human A549 cells assessed as cell viability after 72 hrs by MTT assay
- Format: functional, cell-based
- run.parameters: A549, 72 h
Reported values of pIC50 for individual entries
Notebook: values listed as pIC50 are -log10 of the concentration (mol/L).

Solved cases below.
query.smiles: COc1ccc(C(=O)Nc2cc(Nc3nccc(-c4cn(C)c5ccccc45)n3)c(OC)cc2N(C)CCN(C)C)nc1
pIC50: 5.28

query.smiles: COc1cc(N(C)CCN(C)C)c(NC(=O)c2ccnc(Cl)c2)cc1Nc1nccc(-c2cn(C)c3ccccc23)n1
pIC50: 6.01

query.smiles: COc1cc(N(C)CCN(C)C)c(NC(=O)c2cccnc2)cc1Nc1nccc(-c2cn(C)c3ccccc23)n1
pIC50: 5.80

Proceeding to the next molecule to report its pIC50.
Need pIC50 of `COc1cc(F)c(NC(=O)c2cnccn2)cc1Nc1nccc(-c2cn(C)c3ccccc23)n1` , thanks. 5.60
